viability, T/C values for the molecules below.
Test system: 519858-162-T-J1-PDC complex spheroid growth, % test/control
experiment.description: Anticancer human tumor 519858-162-T-J1-PDC patient-derived colon adenocarcinoma cell line growth inhibition [Asc]
condition.parameters: second compound 0.0316 µM; first compound 0.1 µM; active compounds read low
experimental.readout: viability, T/C

[[record]]
molecule = "O=C(c1ccc(F)c(F)c1Nc1ccc(I)cc1F)N1CC(O)([C@@H]2CCCCN2)C1 + CNC(C)C(=O)NC1CN(S(=O)(=O)c2cccc(S(=O)(=O)N3CCC4CCC(C(=O)NC(c5ccccc5)c5ccccc5)N4C(=O)C(NC(=O)C(C)NC)C3)c2)CCC2CCC(C(=O)NC(c3ccccc3)c3ccccc3)N2C1=O"
experimental_readout = "viability, T/C"
test_result = "101%"

[[record]]
molecule = "CCN1CCN(Cc2ccc(Nc3ncc(F)c(-c4cc(F)c5nc(C)n(C(C)C)c5c4)n3)nc2)CC1 + CNC(C)C(=O)NC1CN(S(=O)(=O)c2cccc(S(=O)(=O)N3CCC4CCC(C(=O)NC(c5ccccc5)c5ccccc5)N4C(=O)C(NC(=O)C(C)NC)C3)c2)CCC2CCC(C(=O)NC(c3ccccc3)c3ccccc3)N2C1=O"
experimental_readout = "viability, T/C"
test_result = "96.6%"


====

System: 519858-162-T-J1-PDC complex spheroid growth, % test/control
experiment.description: Anticancer human tumor 519858-162-T-J1-PDC cell line growth inhibition [Asc]
condition.parameters: second compound 0.3 µM; first compound 1 µM; active compounds read low
viability, T/C values for the molecules below.
experimental.readout: viability, T/C (%)

[[record]]
molecule = "C=C(F)C(=O)N1CCN(c2nc(OCC3CCCN3C)nc3c2CCN(c2cccc4cccc(Cl)c24)C3)CC1CC#N (stereo not drawn) + CCN1C(C(=O)NC23CCC(C(=O)O)(CC2)CC3)C(c2cccc(Cl)c2F)C2(C(=O)Nc3cc(Cl)ccc32)C12CCCCC2"
system_name = "519858-162-T-J1-PDC complex spheroid growth, % test/control"
experimental_readout = "viability, T/C"
test_result = 90.5

[[record]]
molecule = "C#Cc1c(F)ccc2cc(O)cc(-c3ncc4c(N5CC6CCC(C5)N6)nc(OCC56CCCN5CC(F)C6)nc4c3F)c12 (stereo not drawn) + CCN1C(C(=O)NC23CCC(C(=O)O)(CC2)CC3)C(c2cccc(Cl)c2F)C2(C(=O)Nc3cc(Cl)ccc32)C12CCCCC2"
system_name = "519858-162-T-J1-PDC complex spheroid growth, % test/control"
experimental_readout = "viability, T/C"
test_result = 71.2

[[record]]
molecule = "CNC(C)C(=O)NC1CN(S(=O)(=O)c2cccc(S(=O)(=O)N3CCC4CCC(C(=O)NC(c5ccccc5)c5ccccc5)N4C(=O)C(NC(=O)C(C)NC)C3)c2)CCC2CCC(C(=O)NC(c3ccccc3)c3ccccc3)N2C1=O (stereo not drawn) + CCN1C(C(=O)NC23CCC(C(=O)O)(CC2)CC3)C(c2cccc(Cl)c2F)C2(C(=O)Nc3cc(Cl)ccc32)C12CCCCC2"
system_name = "519858-162-T-J1-PDC complex spheroid growth, % test/control"
experimental_readout = "viability, T/C"
test_result = 58.2


====

System: 519858-162-T-J1-PDC complex spheroid growth, % test/control
experiment.description: Anticancer human tumor 519858-162-T-J1-PDC cell line growth inhibition [Asc];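 note: seven day drug exposure begun three days after spheroid seeding; 100% = DMSO vehicle wells and lower values mean less viable spheroid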
condition.parameters: second compound 0.949 µM; first compound 10 µM; active compounds read low
viability, T/C values for the compounds below.
experimental.readout: viability, T/C (%)

[[record]]
compound = "C#Cc1c(F)ccc2cc(O)cc(-c3ncc4c(N5CC6CCC(C5)N6)nc(OCC56CCCN5CC(F)C6)nc4c3F)c12 (centres undefined) + CCN1C(C(=O)NC23CCC(C(=O)O)(CC2)CC3)C(c2cccc(Cl)c2F)C2(C(=O)Nc3cc(Cl)ccc32)C12CCCCC2"
test_result = 93.6

[[record]]
compound = "O=C(c1cc(Cc2n[nH]c(=O)c3ccccc23)ccc1F)N1CCN(C(=O)C2CC2)CC1 + CCN1C(C(=O)NC23CCC(C(=O)O)(CC2)CC3)C(c2cccc(Cl)c2F)C2(C(=O)Nc3cc(Cl)ccc32)C12CCCCC2"
test_result = 94

[[record]]
compound = "C=CC(=O)N1CCN(c2nc(=O)n(-c3c(C)ccnc3C(C)C)c3nc(-c4c(O)cccc4F)c(F)cc23)C(C)C1 (centres undefined) + CCN1C(C(=O)NC23CCC(C(=O)O)(CC2)CC3)C(c2cccc(Cl)c2F)C2(C(=O)Nc3cc(Cl)ccc32)C12CCCCC2"
test_result = 70

[[record]]
compound = "C=C(F)C(=O)N1CCN(c2nc(OCC3CCCN3C)nc3c2CCN(c2cccc4cccc(Cl)c24)C3)CC1CC#N (centres undefined) + CCN1C(C(=O)NC23CCC(C(=O)O)(CC2)CC3)C(c2cccc(Cl)c2F)C2(C(=O)Nc3cc(Cl)ccc32)C12CCCCC2"
test_result = 32.4


====

viability, T/C values for the molecules below.
Tested on: 519858-162-T-J1-PDC complex spheroid growth, % test/control
experiment.description: Anticancer human tumor 519858-162-T-J1-PDC cell line growth inhibition [Asc];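 note: seven day drug exposure begun three days after spheroid seeding; 100% = DMSO vehicle wells and lower values mean less viable spheroid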
condition.parameters: second compound 1 µM; first compound 0.1 µM; active compounds read low
experimental.readout: viability, T/C (%)

[[record]]
molecule = "O=C(c1ccc(F)c(F)c1Nc1ccc(I)cc1F)N1CC(O)([C@@H]2CCCCN2)C1 + CNC(C)C(=O)NC1CN(S(=O)(=O)c2cccc(S(=O)(=O)N3CCC4CCC(C(=O)NC(c5ccccc5)c5ccccc5)N4C(=O)C(NC(=O)C(C)NC)C3)c2)CCC2CCC(C(=O)NC(c3ccccc3)c3ccccc3)N2C1=O"
test_result = 79.7

[[record]]
molecule = "COc1c(OCCCN2CCOCC2)ccc2c3n(c(=NC(=O)c4cnc(N)nc4)nc12)CCN3 + Cc1c(S(C)(=O)=O)c(-c2cc(F)cc(N3CCN(c4ccc(NS(=O)(=O)c5ccc(NC(CCN6CCC(C(=O)OCCCP(=O)(O)O)CC6)CSc6ccccc6)c(S(=O)(=O)C(F)(F)F)c5)cc4)CC3)c2)c(-c2ccc(Cl)cc2)n1C(C)C"
test_result = 59.8


====

Tested on: 519858-162-T-J1-PDC complex spheroid growth, % test/control
experiment.description: Anticancer human tumor 519858-162-T-J1-PDC cell line growth inhibition [Asc];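 note: seven day drug exposure begun three days after spheroid seeding; 100% = DMSO vehicle wells and lower values mean less viable spheroid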
condition.parameters: second compound 0.1 µM; first compound 0.001 µM; active compounds read low
experimental.readout: viability, T/C (%)

[[record]]
compound = "Cn1ncnc1[C@H]1c2n[nH]c(=O)c3cc(F)cc(c23)N[C@@H]1c1ccc(F)cc1 + Cc1c(S(C)(=O)=O)c(-c2cc(F)cc(N3CCN(c4ccc(NS(=O)(=O)c5ccc(NC(CCN6CCC(C(=O)OCCCP(=O)(O)O)CC6)CSc6ccccc6)c(S(=O)(=O)C(F)(F)F)c5)cc4)CC3)c2)c(-c2ccc(Cl)cc2)n1C(C)C"
experimental_readout = "viability, T/C"
test_result = 78.9

[[record]]
compound = "NC1CCC(NC2CC2c2ccccc2)CC1 (centres undefined) + CNC(C)C(=O)NC1CN(S(=O)(=O)c2cccc(S(=O)(=O)N3CCC4CCC(C(=O)NC(c5ccccc5)c5ccccc5)N4C(=O)C(NC(=O)C(C)NC)C3)c2)CCC2CCC(C(=O)NC(c3ccccc3)c3ccccc3)N2C1=O"
experimental_readout = "viability, T/C"
test_result = 112

[[record]]
compound = "Cn1ncnc1[C@H]1c2n[nH]c(=O)c3cc(F)cc(c23)N[C@@H]1c1ccc(F)cc1 + CNC(C)C(=O)NC1CN(S(=O)(=O)c2cccc(S(=O)(=O)N3CCC4CCC(C(=O)NC(c5ccccc5)c5ccccc5)N4C(=O)C(NC(=O)C(C)NC)C3)c2)CCC2CCC(C(=O)NC(c3ccccc3)c3ccccc3)N2C1=O"
experimental_readout = "viability, T/C"
test_result = 78.3

[[record]]
compound = "NC1CCC(NC2CC2c2ccccc2)CC1 (centres undefined) + Cc1c(S(C)(=O)=O)c(-c2cc(F)cc(N3CCN(c4ccc(NS(=O)(=O)c5ccc(NC(CCN6CCC(C(=O)OCCCP(=O)(O)O)CC6)CSc6ccccc6)c(S(=O)(=O)C(F)(F)F)c5)cc4)CC3)c2)c(-c2ccc(Cl)cc2)n1C(C)C"
experimental_readout = "viability, T/C"
test_result = 122


====

System: 519858-162-T-J1-PDC complex spheroid growth, % test/control
experiment.description: Anticancer human tumor 519858-162-T-J1-PDC cell line growth inhibition [Asc];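 note: seven day drug exposure begun three days after spheroid seeding; 100% = DMSO vehicle wells and lower values mean less viable spheroid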
condition.parameters: second compound 1 µM; first compound 0.0316 µM; active compounds read low
API: label(entry) gives t if the entry's viability, T/C is strictly smaller than 90%; on equality or larger values it gives f.

[[record]]
compound = "CNC(C)C(=O)NC1CN(S(=O)(=O)c2cccc(S(=O)(=O)N3CCC4CCC(C(=O)NC(c5ccccc5)c5ccccc5)N4C(=O)C(NC(=O)C(C)NC)C3)c2)CCC2CCC(C(=O)NC(c3ccccc3)c3ccccc3)N2C1=O (stereo unspecified) + Cc1c(S(C)(=O)=O)c(-c2cc(F)cc(N3CCN(c4ccc(NS(=O)(=O)c5ccc(NC(CCN6CCC(C(=O)OCCCP(=O)(O)O)CC6)CSc6ccccc6)c(S(=O)(=O)C(F)(F)F)c5)cc4)CC3)c2)c(-c2ccc(Cl)cc2)n1C(C)C"
qualitative_label = "t"

[[record]]
compound = "COc1c(OCCCN2CCOCC2)ccc2c3n(c(=NC(=O)c4cnc(N)nc4)nc12)CCN3 + CNC(C)C(=O)NC1CN(S(=O)(=O)c2cccc(S(=O)(=O)N3CCC4CCC(C(=O)NC(c5ccccc5)c5ccccc5)N4C(=O)C(NC(=O)C(C)NC)C3)c2)CCC2CCC(C(=O)NC(c3ccccc3)c3ccccc3)N2C1=O"
qualitative_label = "t"

[[record]]
compound = "Cn1ncnc1[C@H]1c2n[nH]c(=O)c3cc(F)cc(c23)N[C@@H]1c1ccc(F)cc1 + Cc1c(S(C)(=O)=O)c(-c2cc(F)cc(N3CCN(c4ccc(NS(=O)(=O)c5ccc(NC(CCN6CCC(C(=O)OCCCP(=O)(O)O)CC6)CSc6ccccc6)c(S(=O)(=O)C(F)(F)F)c5)cc4)CC3)c2)c(-c2ccc(Cl)cc2)n1C(C)C"
qualitative_label = "t"

[[record]]
compound = "C=C(F)C(=O)N1CCN(c2nc(OCC3CCCN3C)nc3c2CCN(c2cccc4cccc(Cl)c24)C3)CC1CC#N (stereo unspecified) + CNC(C)C(=O)NC1CN(S(=O)(=O)c2cccc(S(=O)(=O)N3CCC4CCC(C(=O)NC(c5ccccc5)c5ccccc5)N4C(=O)C(NC(=O)C(C)NC)C3)c2)CCC2CCC(C(=O)NC(c3ccccc3)c3ccccc3)N2C1=O"
qualitative_label = "f"

[[record]]
compound = "O=C(c1ccc(F)c(F)c1Nc1ccc(I)cc1F)N1CC(O)([C@@H]2CCCCN2)C1 + CNC(C)C(=O)NC1CN(S(=O)(=O)c2cccc(S(=O)(=O)N3CCC4CCC(C(=O)NC(c5ccccc5)c5ccccc5)N4C(=O)C(NC(=O)C(C)NC)C3)c2)CCC2CCC(C(=O)NC(c3ccccc3)c3ccccc3)N2C1=O"
qualitative_label = "f"

[[record]]
compound = "CCN1CCN(Cc2ccc(Nc3ncc(F)c(-c4cc(F)c5nc(C)n(C(C)C)c5c4)n3)nc2)CC1 + CNC(C)C(=O)NC1CN(S(=O)(=O)c2cccc(S(=O)(=O)N3CCC4CCC(C(=O)NC(c5ccccc5)c5ccccc5)N4C(=O)C(NC(=O)C(C)NC)C3)c2)CCC2CCC(C(=O)NC(c3ccccc3)c3ccccc3)N2C1=O"
qualitative_label = "f"

